B1: glmS ribozyme (parent)
chain: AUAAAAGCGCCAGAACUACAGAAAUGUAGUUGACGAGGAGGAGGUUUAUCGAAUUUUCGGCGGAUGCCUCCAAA

variants of: B1; experiment: kcat; higher = faster cleavage; RNA array; conditions: with glucosamine-6-phosphate
Variants at the floor of the assay were thinned out.
The variants listed here are annotated with their kcat.
Kindly answer with a numeric value in s⁻¹, unit omitted.

# count of solved cases: 3
C61G U69C C70G    5.75e-05
C10A A14U G59U C71G    1.42e-05
G32A C71U    0.00395

Request: Would you kindly share the measured kcat for A39U G44C ?
Response: 0.000268

Request: Would you kindly share the measured kcat for G43U C68U ?
Response: 0.00467

Request: Would you kindly share the measured kcat for U46G U49G ?
Response: 9.12e-05
